Assay details: Human HepG2 cell viability assay in 384 well format
Type: toxicity, cell-based
Parameters: dose 125 nL, time 70.5 hour; concentration not given beside the values
Condition notes: HepG2 cells, read-out: Inhibition
Each item that follows carries a reported cytotoxicity at 70.5 h.
Report the value in % with no unit label.

As a guide, the following entries are already answered.
[
  {
    "Compound": "NC(=O)CN1CCC(C(=O)NCCn2cc(Cl)cn2)CC1",
    "Measured property": "cytotoxicity at 70.5 h",
    "Reading unit": "%",
    "Reported result": 3.62
  },
  {
    "Compound": "CN1CCC(N(C)C(=O)c2cnn(-c3cc(F)ccc3F)c2N)CC1",
    "Measured property": "cytotoxicity at 70.5 h",
    "Reading unit": "%",
    "Reported result": -0.483
  }
]

Look at this compound and give its reported cytotoxicity at 70.5 h. Cc1ccc(C2CN(C(=O)c3c(C)cc(C)[nH]c3=O)CCO2)c(C)c1 (configuration not stated)
9.82

Look at this compound and give its reported cytotoxicity at 70.5 h. "O=C(O)[C@@H]1CN(Cc2c[nH]c(CC3CCCC3)n2)C[C@H]1c1ccccn1"
17.2

Look at this compound and give its reported cytotoxicity at 70.5 h. COc1cc(C)cc(C(C(=O)O)N(C)Cc2ccon2)c1OC (configuration not stated)
-0.471

Look at this compound and give its reported cytotoxicity at 70.5 h. "CCc1ccc(-n2nnc(C(=O)O)c2-c2ccncc2)cc1"
-4.02

Look at this compound and give its reported cytotoxicity at 70.5 h. CN(C)CCN1CCc2c(nnn2C)C1COCc1ccccc1 (configuration not stated)
10.5

Look at this compound and give its reported cytotoxicity at 70.5 h. O=C1CCC2(CCCN(c3ncc(Cl)cc3F)C2)CN1CC1CC1 (configuration not stated)
-1.6

Look at this compound and give its reported cytotoxicity at 70.5 h. "CCc1nnc(CN2CCc3cnc(C)nc3C2)o1"
-3.58

Look at this compound and give its reported cytotoxicity at 70.5 h. "CC(C)Nc1ccc2nc(C3CCN(C(C)C)CC3)nn2c1"
-2.64

Look at this compound and give its reported cytotoxicity at 70.5 h. "Cc1ccc(N2C[C@@H]3CN(Cc4ccoc4)CCO[C@@H]3C2)nn1"
10.2

Look at this compound and give its reported cytotoxicity at 70.5 h. CCc1cnc(N)nc1NC(C)c1ccc(C)c(C)c1 (configuration not stated)
-0.902

Look at this compound and give its reported cytotoxicity at 70.5 h. "CN(Cc1cncnc1)[C@H]1CN(C(=O)c2ccc[nH]2)[C@@H]2CCCO[C@@H]21"
-8.37

Look at this compound and give its reported cytotoxicity at 70.5 h. Cc1ccc(-c2cc(N)c(=O)n(C(C)C(=O)NCC3CCCCC3)n2)s1 (configuration not stated)
18

Look at this compound and give its reported cytotoxicity at 70.5 h. "O=C(c1cc(-n2cccc2)ccc1Cl)N1CCC2(CC1)OCCO2"
2.22

Look at this compound and give its reported cytotoxicity at 70.5 h. "O=C1CC[C@H]2[C@H](CCN2c2ncccn2)N1c1ccccc1"
-10.3

Look at this compound and give its reported cytotoxicity at 70.5 h. "COc1cc(CNCc2c(C)nn(C)c2N(C)C)ccc1OCCO"
5.42

Look at this compound and give its reported cytotoxicity at 70.5 h. "CC[C@H](C)[C@H](NC(=O)c1ccccc1-n1cnnn1)C(=O)OC"
33.9

Look at this compound and give its reported cytotoxicity at 70.5 h. NC(=O)C1CN(C(=O)Nc2ccccc2SC2CCCC2)CCO1 (configuration not stated)
-3.34

Look at this compound and give its reported cytotoxicity at 70.5 h. "Cc1ccc(-c2cnc3n2CCN(C)C32CCN(CC3CC3)CC2)cc1"
-1.92

* * *

Assay details: Human HepG2 cell viability assay in 384 well format
Assay type: toxicity, cell-based
Design: dose 125 nL, time 70.5 hour; concentration not given beside the values
Condition notes: HepG2 cells, read-out: Inhibition
Measured property: cytotoxicity at 70.5 h (%)
Report the value in % with no unit label.

[
  {
    "Molecule": "O=C(CCNc1ccc(Br)cn1)NCc1ccncc1",
    "Reading unit": "%",
    "Reported result": 0.0133
  }
]

Look at this molecule and give its reported cytotoxicity at 70.5 h. CCN(CC)C1CCN(C(=O)Nc2cc(F)c(OC)c(F)c2)C1 (stereo not drawn)
1.91

Look at this molecule and give its reported cytotoxicity at 70.5 h. Cc1cnc2c(S(=O)(=O)NCC3CCN(C4CC4)C3)cccc2c1 (stereo not drawn)
-5.3

Look at this molecule and give its reported cytotoxicity at 70.5 h. Fc1ccccc1Cc1noc(CN2CCC(C3CCCCC3)C2)n1 (stereo not drawn)
34.7

Look at this molecule and give its reported cytotoxicity at 70.5 h. "COC(=O)c1ccoc1CN(C)CC(=O)NC1CC1"
-5.08

Look at this molecule and give its reported cytotoxicity at 70.5 h. "Cc1ccc(CN2CCN(CC(=O)N(C)C)[C@@H]3CS(=O)(=O)C[C@@H]32)cc1C"
-3.23

Look at this molecule and give its reported cytotoxicity at 70.5 h. "NC(=O)c1ccc(N2CCCCC2)c(NC(=O)c2cncc(Br)c2)c1"
-7.05

Look at this molecule and give its reported cytotoxicity at 70.5 h. "COc1cccc(CC2(C(=O)O)CCN(c3ccc(Cl)cn3)CC2)c1"
-3.25

Look at this molecule and give its reported cytotoxicity at 70.5 h. "CC(=O)Nc1ccc(CNc2ccn(Cc3ccccc3)n2)cc1"
-3.05

Look at this molecule and give its reported cytotoxicity at 70.5 h. CC1CCN(c2ccc(C(=O)N3CCCC3c3ccc[nH]3)cn2)CC1 (stereo not drawn)
5.1

Look at this molecule and give its reported cytotoxicity at 70.5 h. Cc1nc(C2CCCN2C(=O)c2cc3c(s2)CCCC3)no1 (stereo not drawn)
-3.98

Look at this molecule and give its reported cytotoxicity at 70.5 h. "CSc1ccc(-c2nc(CN3C[C@@H](C)NC[C@@H]3C)c(C)o2)cc1"
-4.1

Look at this molecule and give its reported cytotoxicity at 70.5 h. "c1ccc(CN2CCc3ncnc(-c4ccoc4)c3CC2)nc1"
-5.45

Look at this molecule and give its reported cytotoxicity at 70.5 h. "CC(C)(C)C(=O)NCCCC(=O)NC(C)(C)c1ccc2c(c1)OCO2"
3.16

Look at this molecule and give its reported cytotoxicity at 70.5 h. "O=S1(=O)C[C@@H]2[C@H](C1)N(Cc1ccoc1)CCN2Cc1ccncc1"
-5.67

Look at this molecule and give its reported cytotoxicity at 70.5 h. "CC(=O)N1CCN(CC(=O)N2CCN(c3cccc(C)c3)CC2)CC1"
24.4

Look at this molecule and give its reported cytotoxicity at 70.5 h. "Cc1cc(C)c(C(=O)NC2CCN(c3ncccc3C#N)CC2)c(=O)[nH]1"
-11.1

Look at this molecule and give its reported cytotoxicity at 70.5 h. "CCc1nc(C(=O)N2CCCC2)nn1-c1c(Cl)cccc1Cl"
-2.51

Look at this molecule and give its reported cytotoxicity at 70.5 h. "CN(CCN1CCCCCC1)Cc1cnc(N)nc1"
-6

Look at this molecule and give its reported cytotoxicity at 70.5 h. "O=C(NCc1ccc2nonc2c1)C1CCN(C(=O)C2CCC2)CC1"
-6.22

Look at this molecule and give its reported cytotoxicity at 70.5 h. CC(C)COC(C)C(=O)N1CCCCC1 (stereo not drawn)
-3.46

Look at this molecule and give its reported cytotoxicity at 70.5 h. COc1c(F)cc(CN2CCC3(CC2)C(C(=O)O)CC(=O)N3C)cc1Cl (stereo not drawn)
-3.91

Look at this molecule and give its reported cytotoxicity at 70.5 h. CC(C)NC(=O)C1CN(C(=O)c2cccs2)CC12CCOCC2 (stereo not drawn)
-1.8

* * *

Assay details: Human HepG2 cell viability assay in 384 well format
Assay type: toxicity, cell-based
Parameters: dose 125 nL, time 70.5 hour; concentration not given beside the values
Condition notes: HepG2 cells, read-out: Inhibition
Each item that follows carries a reported cytotoxicity at 70.5 h.
Report the value in % with no unit label.

As a guide, the following entries are already answered.
[
  {
    "Molecule": "O=C(Cn1cncn1)NCC1(O)CCCc2ccccc21 (stereo unspecified)",
    "Reported result": 23.9
  },
  {
    "Molecule": "Cc1nc(CN(C)C2CCN(Cc3nc4ccccc4s3)C2)no1 (stereo unspecified)",
    "Reported result": -8.96
  },
  {
    "Molecule": "CCC(CC#N)n1ccc(C(F)(F)F)n1 (stereo unspecified)",
    "Reported result": 22.2
  },
  {
    "Molecule": "O=C(CSc1ccc(F)cc1F)NS(=O)(=O)c1ccc2c(c1)OCCO2",
    "Reported result": -3.46
  },
  {
    "Molecule": "Cn1ccnc1C(NCc1ccccc1)c1ccc(F)cc1 (stereo unspecified)",
    "Reported result": -2.68
  }
]

Look at this molecule and give its reported cytotoxicity at 70.5 h. COCC1CC2(CCN(Cc3ccccn3)CC2)CN1c1ncccn1 (stereo unspecified)
0.787
